B1: Krev interaction trapped protein 1 (Homo sapiens), O00522 (parent)
chain: MGNPENIEDAYVAVIRPKNTASLNSREYRAKSYEILLHEVPIEGQKKKRKKVLLETKLQGNSEITQGILDYVVETTKPISPANQGIRGKRVVLMKKFPLDGEKMGREASLFIVPSVVKDNTKYTYTPGCPIFYCLQDIMRVCSESSTHFATLTARMLIALDKWLDERHAQSHFIPALFRPSPLERIKTNVINPAYATESGQTENSLHMGYSALEIKSKMLALEKADTCIYNPLFGSDLQYTNRVDKVVINPYFGLGAPDYSKIQIPKQEKWQRSMSSVTEDKERQWVDDFPLHRSACEGDSELLSRLLSERFSVNQLDSDHWAPIHYACWYGKVEATRILLEKGKCNPNLLNGQLSSPLHFAAGGGHAEIVQILLNHPETDRHITDQQGRSPLNICEENKQNNWEEAAKLLKEAINKPYEKVRIYRMDGSYRSVELKHGNNTTVQQIMEGMRLSQETQQYFTIWICSENLSLQLKPYHKPLQHVRDWPEILAELTNLDPQRETPQLFLRRDVRLPLEVEKQIEDPLAILILFDEARYNLLKGFYTAPDAKLITLASLLLQIVYGNYESKKHKQGFLNEENLKSIVPVTKLKSKAPHWTNRILHEYKNLSTSEGVSKEMHHLQRMFLQNCWEIPTYGAAFFTGQIFTKASPSNHKVIPVYVGVNIKGLHLLNMETKALLISLKYGCFMWQLGDTDTCFQIHSMENKMSFIVHTKQAGLVVKLLMKLNGQLMPTERNS

# Variants of: B1
# CONDITION_SET: with ccm2_human CCM2, Q9BSQ5
# Sequence (Q9BSQ5 whole entry): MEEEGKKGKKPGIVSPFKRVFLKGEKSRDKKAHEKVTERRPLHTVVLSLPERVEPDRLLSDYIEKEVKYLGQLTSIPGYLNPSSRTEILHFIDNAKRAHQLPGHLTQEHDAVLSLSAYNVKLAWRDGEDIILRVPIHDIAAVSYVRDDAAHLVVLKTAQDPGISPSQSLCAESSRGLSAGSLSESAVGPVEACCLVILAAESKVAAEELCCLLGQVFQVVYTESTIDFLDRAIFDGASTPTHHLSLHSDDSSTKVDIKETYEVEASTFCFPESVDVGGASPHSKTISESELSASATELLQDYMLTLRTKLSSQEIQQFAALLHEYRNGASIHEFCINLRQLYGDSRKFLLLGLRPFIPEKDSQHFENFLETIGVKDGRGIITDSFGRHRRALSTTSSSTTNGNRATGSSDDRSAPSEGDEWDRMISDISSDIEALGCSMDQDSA
MEASURED_PROPERTY: effect of a mutation on the interaction

# VARIANT_DESCRIPTION, RESULT
records = [
    ("Y195A", "with no effect"),
    ("Y252A;F253A", "with no effect"),
    ("F234A", "with no effect"),
]
